- EXPERIMENTAL_SYSTEM: full length recombinant Pim-1 (Homo sapiens (Human))
- Sequence (P11309 whole entry): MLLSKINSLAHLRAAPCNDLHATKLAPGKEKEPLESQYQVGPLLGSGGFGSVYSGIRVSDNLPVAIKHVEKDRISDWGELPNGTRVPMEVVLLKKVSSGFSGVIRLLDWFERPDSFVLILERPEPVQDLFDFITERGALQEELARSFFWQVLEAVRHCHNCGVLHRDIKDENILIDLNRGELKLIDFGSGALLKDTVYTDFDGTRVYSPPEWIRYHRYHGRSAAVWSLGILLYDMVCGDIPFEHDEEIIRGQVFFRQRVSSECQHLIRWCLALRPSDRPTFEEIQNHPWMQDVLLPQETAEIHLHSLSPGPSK
- PROTOCOL_DETAILS: Pim enzyme assay (HTRF, phosphorylation of biotinylated-BAD (S112) peptide), Pim-1
- Assay type: biochemical
- TEST_PARAMETERS: Pim-1 enzyme assay; read-out: Pim_1_IC50
OBSERVABLE: IC50 (nM)

1 = CNc1nnc(-c2ccc3[nH]cc(-c4cccc(-n5ccccc5=O)n4)c3c2)s1
2 = CNc1nnc(-c2ccc3[nH]cc(-c4ccccc4F)c3c2)s1
Prompt: Between 1 and 2 , which one shows the larger IC50 value? Answer by stating the label of the chosen item.
Completion: 1

---

- EXPERIMENTAL_SYSTEM: full length recombinant Pim-3 (Homo sapiens (Human), UniProt Q86V86)
- PROTOCOL_DETAILS: Pim enzyme assay (HTRF, phosphorylation of biotinylated-BAD (S112) peptide), Pim-3
- Assay type: biochemical
- TEST_PARAMETERS: Pim-3 enzyme assay; read-out: Pim3 IC50
OBSERVABLE: IC50 (nM)

I = Nc1nnc(-c2ccc3[nH]cc(-c4cncc(NCC5CC5)n4)c3c2)s1 [Example 207]
II = CC(C)Oc1cccc(-c2c[nH]c3ccc(-c4nnc(N)o4)cc23)c1 [Example 85]
Prompt: So which one has the bigger IC50 here, I or II ? Kindly give the label for the entry you pick.
Completion: II
(II: 81.8 nM, I: 1.68 nM)

A = Nc1nnc(-c2ccc3[nH]cc(-c4cnn(CCN5CCOCC5)c4)c3c2)o1 [Example 81]
B = Nc1nnc(-c2ccc3[nH]cc(-c4cccc(-n5ccccc5=O)n4)c3c2)s1 [Example 185]
Prompt: // max by IC50 over [ A , B ] Identify your selection by its label.
Completion: A
(A: 147 nM, B: 68.2 nM)

---

- Tested on: Pim-1 stably transfected U2OS human osteogenic sarcoma line
- PROTOCOL_DETAILS: Pim cell assay U2OS (phospho-BAD normalized against total BAD), Pim-1 transfected
- Assay type: cell-based
- TEST_PARAMETERS: read-out: U2OS Pim1_Cell_IC50; U2OS cells, Pim-1 transfected
Listed below: IC50 values for each entry.
All answers are understood in nM, so give the number only.

Solved cases below.
COMPOUND	IC50 [nM]
Nc1nnc(-c2ccc3[nH]cc(-c4cccc(N5CCCC5)n4)c3c2)s1 [Example 14]	159
Nc1nnc(-c2ccc3[nH]cc(-c4cccc(N5CCCC5)n4)c3c2)s1 [Example 176]	526

Prompt: What IC50 value was documented for this compound, CC1COCCN1c1nnc(-c2ccc3[nH]cc(-c4cncc(C5CC5)n4)c3c2)o1 (stereo in doubt) ?
Completion: 375

---

- EXPERIMENTAL_SYSTEM: full length recombinant Pim-3 (Homo sapiens (Human))
- PROTOCOL_DETAILS: Pim enzyme assay (HTRF, phosphorylation of biotinylated-BAD (S112) peptide), Pim-3
- Assay type: biochemical
- TEST_PARAMETERS: Pim-3 enzyme assay; read-out: Pim3 IC50
OBSERVABLE: IC50 (nM)

Would you please look over these solved cases?
MOLECULE	IC50 (nM)
Nc1nnc(-c2ccc3[nH]cc(-c4c(F)cccc4F)c3c2)s1	96.7
COCC(=O)Nc1cccc(CNc2nnc(-c3ccc4[nH]cc(-c5ccccc5F)c4c3)s2)c1	540
CNc1nnc(-c2ccc3[nH]cc(-c4cccc(N5CCCC5=O)n4)c3c2)s1	6.73
Nc1nnc(-c2ccc3[nH]cc(-c4cccc(OC5CCCC5)n4)c3c2)s1	4.58
CNc1nnc(-c2ccc3[nH]cc(-c4cccc(-n5cnc(C)c5)n4)c3c2)s1	1.5

P = C[C@H]1CCCCN1c1cccc(-c2c[nH]c3ccc(-c4nnc(N)s4)cc23)n1 (stereo in doubt)
Q = Nc1nnc(-c2ccc3[nH]cc(-c4nccc(C5CC5)n4)c3c2)o1
R = CNc1nnc(-c2ccc3[nH]cc(-c4csc(-n5cnc(C)c5)n4)c3c2)s1
Prompt: # rank by IC50, ascending (min first) Please list each label once, in the requested order.
Completion: Q, P, R
(Q: 0.998 nM, P: 5.87 nM, R: 28 nM)

---

- EXPERIMENTAL_SYSTEM: full length recombinant Pim-3 (Homo sapiens (Human), UniProt Q86V86)
- PROTOCOL_DETAILS: Pim enzyme assay (HTRF, phosphorylation of biotinylated-BAD (S112) peptide), Pim-3
- Format: biochemical
- TEST_PARAMETERS: Pim-3 enzyme assay; read-out: Pim3 IC50
pIC50: −log10 of the molar value.
OBSERVABLE: pIC50

Worked set:
COMPOUND	pIC50
Oc1nnc(-c2ccc3[nH]cc(-c4cccc(N5CCOCC5)n4)c3c2)s1 [Example 29]	7.54
CNc1nnc(-c2ccc3[nH]cc(-c4ccnc(N5CCOCC5)n4)c3c2)s1 [Example 129]	7.91
CNc1nnc(-c2ccc3[nH]cc(-c4cccc(N5CCOCC5)n4)c3c2)s1 [Example 214]	8.00
Nc1nnc(-c2ccc3[nH]cc(-c4ccc5cn[nH]c5c4)c3c2)s1 [Example 171]	7.86
Nc1nnc(-c2ccc3[nH]cc(-c4cnc(N5CCOCC5)cn4)c3c2)s1 [Example 192]	6.57
CSc1nnc(-c2ccc3[nH]cc(-c4cccc(N5CCOCC5)n4)c3c2)s1 [Example 243]	7.07
Nc1nnc(-c2ccc3[nH]cc(-c4cccc(-c5ccccc5)n4)c3c2)s1 [Example 130]	7.69
CC(C)Oc1cncc(-c2c[nH]c3ccc(-c4nnc(N)s4)cc23)n1 [Example 159]	8.52

P = CNc1nnc(-c2ccc3[nH]cc(-c4c(F)cccc4F)c3c2)s1 [Example 237]
Q = Nc1nnc(-c2ccc3[nH]cc(-c4nccc(C(F)(F)F)n4)c3c2)o1 [Example 96]
R = Nc1nnc(-c2ccc3[nH]cc(-c4cccc(N5CCOCC5)n4)c3c2)s1 [Example 24]
S = Nc1nnc(-c2ccc3[nH]cc(-c4ccccc4F)c3c2)s1 [Example 136]
Prompt: Rank descending by pIC50. Answer by listing the labels in the order asked for.
Completion: R, Q, S, P

a = Nc1nnc(-c2ccc3[nH]cc(-c4cncc(O[C@@H]5CCCNC5)n4)c3c2)o1 [Example 99]
b = Nc1nnc(-c2ccc3[nH]cc(-c4cnc5ccccc5c4)c3c2)s1 [Example 21]
Prompt: Could you kindly indicate whether a or b has the higher pIC50 value? Selection: enter the item's label.
Completion: a
(a: 7.91, b: 6.75)

1 = Nc1nnc(-c2ccc3[nH]cc(-c4cccc(NCC5CC5)n4)c3c2)s1 [Example 204]
2 = CNc1nnc(-c2ccc3[nH]cc(-c4cccc(-n5ccccc5=O)n4)c3c2)s1 [Example 238]
Prompt: Smaller pIC50 value, 1 vs 2 ? Could you answer with the label of the item you picked?
Completion: 2

a = Nc1nnc(-c2ccc3[nH]cc(-c4nccc(-c5ccccc5F)n4)c3c2)o1 [Example 123]
b = CNc1nnc(-c2ccc3[nH]cc(-c4cnc5ccccc5c4)c3c2)s1 [Example 217]
c = Nc1nnc(-c2ccc3[nH]cc(-c4nccc(-c5ccccc5)n4)c3c2)o1 [Example 122]
Prompt: Give the ascending ranking of the items by reported pIC50. Please list the labels in the order you were asked to rank them.
Completion: b, a, c
(b: 6.74, a: 8.30, c: 8.62)

1 = c1ccc(-c2nnc(-c3ccc4[nH]cc(-c5nccc(C6CC6)n5)c4c3)o2)cc1 [Example 255]
2 = CC(Nc1nnc(-c2ccc3[nH]cc(-c4ccccn4)c3c2)o1)c1ccccc1 (centres unmarked) [Example 267]
Prompt: Which record shows the lower pIC50: the first, 1 , or the second, 2 ? Pick one and reply with its label.
Completion: 1
(1: 6.91, 2: 7.25)

A = COc1cncc(-c2c[nH]c3ccc(-c4nnc(N)s4)cc23)n1 [Example 212]
B = Nc1nnc(-c2ccc3[nH]cc(-c4cncc(Cl)n4)c3c2)o1 [Example 102]
C = Nc1nnc(-c2ccc3[nH]cc(-c4cncc(N5CCOCC5)n4)c3c2)o1 [Example 90]
D = CC(C)Oc1cc(F)cc(-c2c[nH]c3ccc(-c4nnc(N)o4)cc23)c1 [Example 79]
E = Cc1ccn(-c2cnc(-c3c[nH]c4ccc(-c5nnc(N)s5)cc34)cn2)n1 [Example 197]
Prompt: Your job: order these 5 records by pIC50, ascending. Note for the reader: the ranking is given by listing the labels in the order requested.
Completion: E, D, B, A, C

I = CC(C)Oc1ccc(F)c(-c2c[nH]c3ccc(-c4nnc(N)o4)cc23)c1 [Example 83]
II = Nc1nnc(-c2ccc3[nH]cc(-c4cccc(C(F)(F)F)n4)c3c2)s1 [Example 182]
Prompt: Select the item whose pIC50 value is smaller, choosing between I and II . // respond with label for picked entry
Completion: I

1 = CN(C)[C@H]1CCCN(c2ccnc(-c3c[nH]c4ccc(-c5nnc(N)o5)cc34)n2)C1 (stereo in doubt) [Example 107]
2 = CNc1nnc(-c2ccc3[nH]cc(-c4cncc(N(C)C)n4)c3c2)s1 [Example 231]
3 = CC(C)Oc1cccc(-c2c[nH]c3ccc(-c4nnc(N)o4)nc23)c1 [Example 126]
4 = Nc1nnc(-c2ccc3[nH]cc(-c4ccc5nccnc5c4)c3c2)s1 [Example 151]
Prompt: Endpoint returns the given compounds ordered by ascending pIC50. Answer format: the labels, ordered as requested.
Completion: 3, 4, 2, 1
(3: 7.07, 4: 7.76, 2: 8.00, 1: 8.43)
